subjectOfTest: T1, human CXCR4 (chemokine (C-X-C motif) receptor 4) (human, UniProt P61073 1-352)
T1 construct: Endogenous on human tumour cell lines (Ramos, HPB-ALL, Raji, Jurkat, MM1.S, RPMI-8226, MOLP-8, MOLT-4) or transfected into CHO-K1 cells (DiscoveRx); also called CXCR4 receptor
assayMethodText: flow cytometry on HPB-ALL cells, Fab at 2.5 µg/ml
assayEndpoint: MFI

>>> result("h3G10.2.42 VH / h3G10.2.72 VL Fab (Fab, V domains shown, Tested as Fab) VH: EVQLVESGGGLVQPGGSLRLSCAASGFTFSDYYMSWVRQAPGKGLEWVGFIRHKVNFYTTEYSTSVKGRFTISRDDSKNSLYLQMNSLKTEDTAVYYCARDLPGFAYWGQGTLVTVSS VL: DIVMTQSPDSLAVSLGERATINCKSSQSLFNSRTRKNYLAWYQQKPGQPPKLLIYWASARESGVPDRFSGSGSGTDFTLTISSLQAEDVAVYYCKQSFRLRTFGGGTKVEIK")
4720
>>> result("h3G10.1.33 VH / h3G10.2.72 VL Fab (Fab, V domains shown, Tested as Fab) VH: EVQLVESGGGLVQPGGSLRLSCAASGFTFSDYYMSWVRQAPGKGLEWVGFIRHKANFYTTEYSTSVTGRFTISRDDSKNSLYLQMNSLKTEDTAVYYCARDLPGFAYWGQGTLVTVSS VL: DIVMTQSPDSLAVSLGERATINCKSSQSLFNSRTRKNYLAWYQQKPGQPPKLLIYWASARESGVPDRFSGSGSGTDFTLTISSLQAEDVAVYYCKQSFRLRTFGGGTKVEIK")
4140
>>> result("h3G10 VH / h3G10 VL Fab (Fab, V domains shown, Tested as Fab; also called h3G10 Fab) VH: EVQLVESGGGLVQPGGSLRLSCAASGFTFSDYYMSWVRQAPGKGLEWVGFIRHKANGYTTEYSTSVKGRFTISRDDSKNSLYLQMNSLKTEDTAVYYCARDLPGFAYWGQGTLVTVSS VL: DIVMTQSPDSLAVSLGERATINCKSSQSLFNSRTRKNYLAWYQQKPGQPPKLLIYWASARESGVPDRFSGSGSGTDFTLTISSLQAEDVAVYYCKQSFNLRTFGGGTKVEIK")
2460
>>> result("h3G10.2.54 VH / h3G10.2.72 VL Fab (Fab, V domains shown, Tested as Fab) VH: EVQLVESGGGLVQPGGSLRLSCAASGFTFSDYYMSWVRQAPGKGLEWVGFIRHKANFYTTEYSTSVRGRFTISRDDSKNSLYLQMNSLKTEDTAVYYCARDLPGFAYWGQGTLVTVSS VL: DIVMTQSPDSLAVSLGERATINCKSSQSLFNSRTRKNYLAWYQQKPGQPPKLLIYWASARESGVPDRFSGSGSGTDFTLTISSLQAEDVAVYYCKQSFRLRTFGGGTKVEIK")
4610

We next turn to a different binder, shown below.
### Prompt Param item = h3G10.1.60 VH / h3G10.2.72 VL Fab (Fab, V domains shown, Tested as Fab) VH: EVQLVESGGGLVQPGGSLRLSCAASGFTFSDYYMSWVRQAPGKGLEWVGFIRHKANVYTTEYSTSVKGRFTISRDDSKNSLYLQMNSLKTEDTAVYYCARDLPGFAYWGQGTLVTVSS VL: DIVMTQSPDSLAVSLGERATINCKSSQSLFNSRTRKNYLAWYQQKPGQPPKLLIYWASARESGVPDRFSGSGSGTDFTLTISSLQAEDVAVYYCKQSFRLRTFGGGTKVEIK ; retrieve measured MFI.
### Response 2810
